Numbers sourced from PubChem BioAssay AID1963874.

Kindly state viability, T/C for each of the entries shown.
Test system: 253994-281-T-J1-PDC KRAS-mutant spheroids with HUVEC/MSC, viability
Assay: Anticancer human tumor 253994-281-T-J1-PDC patient-derived colorectal carcinoma cell line growth inhibition [KRAS2]
Conditions: second compound 10 µM; first compound 0.316 µM; stronger effect = lower value
One number for each entry, in %.

// solved cases for viability, T/C follow
Q. For the compound COc1cc(Nc2ncc3c(n2)-c2ccc(Cl)cc2C(c2c(F)cccc2OC)=NC3)ccc1C(=O)O + COc1cc2nc(C)nc(NC(C)c3cc(N)cc(C(F)(F)F)c3)c2cc1OC1CCOC1 , report viability, T/C.
A. 25.7

Q. State, in one line, measured viability, T/C of COc1cc(Nc2ncc3c(n2)-c2ccc(Cl)cc2C(c2c(F)cccc2OC)=NC3)ccc1C(=O)O + CC1OCC2(CCN(c3cnc(Sc4ccnc(N)c4Cl)c(N)n3)CC2)C1N
A. 10.3

More entries:
Q. For the compound O=C(c1cc(Cc2n[nH]c(=O)c3ccccc23)ccc1F)N1CCN(C(=O)C2CC2)CC1 + CNCc1ccccc1-c1csc(C(C)Nc2nc(C)nc3cc(OC)c(OC)cc23)c1 , report viability, T/C.
A. 0.17

###

Tested on: 253994-281-T-J1-PDC KRAS-mutant spheroids with HUVEC/MSC, viability
Experiment: Anticancer human tumor 253994-281-T-J1-PDC cell line growth inhibition [KRAS2];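 further: spheroids exposed to agents for seven days before readout; percent of DMSO vehicle control viability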
Details: second compound 3.16 µM; first compound 0.316 µM; stronger effect = lower value
For each of the molecules below, state its viability, T/C.
Give bare numbers, in %.

// below: answered molecules
Q. # return recorded viability, T/C for entry Cn1nccc1Nc1nccc(-c2cc3c(s2)C(C)(C)N(CCN2CCOCC2)C3=O)n1 + C=CC(=O)N1CCN(c2nc(=O)n(-c3c(C)ccnc3C(C)C)c3nc(-c4c(O)cccc4F)c(F)cc23)C(C)C1
A. 86.4

Q. Please supply the value of reported viability, T/C for the item CC(C)NCC(C(=O)N1CCN(c2ncnc3c2C(C)CC3O)CC1)c1ccc(Cl)cc1 (stereo not drawn) + CC1OCC2(CCN(c3cnc(Sc4ccnc(N)c4Cl)c(N)n3)CC2)C1N
A. 63.9

New cases:
Q. Respond only with viability, T/C recorded for CCN1CCN(Cc2ccc(Nc3ncc(F)c(-c4cc(F)c5nc(C)n(C(C)C)c5c4)n3)nc2)CC1 + CC1OCC2(CCN(c3cnc(Sc4ccnc(N)c4Cl)c(N)n3)CC2)C1N
A. 39

###

Tested on: 253994-281-T-J1-PDC KRAS-mutant spheroids with HUVEC/MSC, viability
Assay: Anticancer human tumor 253994-281-T-J1-PDC cell line growth inhibition [KRAS2];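 further: spheroids exposed to agents for seven days before readout; percent of DMSO vehicle control viability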
Details: second compound 1 µM; first compound 0.1 µM; stronger effect = lower value
Answer each item with its documented viability, T/C.
One number for each entry, in %.

Q. Specify viability, T/C for Cn1ncnc1[C@H]1c2n[nH]c(=O)c3cc(F)cc(c23)N[C@@H]1c1ccc(F)cc1 + CNCc1ccccc1-c1csc(C(C)Nc2nc(C)nc3cc(OC)c(OC)cc23)c1 , system 253994-281-T-J1-PDC KRAS-mutant spheroids with HUVEC/MSC, viability.
A. 78.5

Please go through the list and note viability, T/C for each molecule.
1. CC(C)n1nc(-c2ccc3oc(N)nc3c2)c2c(N)ncnc21 + CNCc1ccccc1-c1csc(C(C)Nc2nc(C)nc3cc(OC)c(OC)cc23)c1
2. CC(C)n1nc(-c2ccc3oc(N)nc3c2)c2c(N)ncnc21 + CC1OCC2(CCN(c3cnc(Sc4ccnc(N)c4Cl)c(N)n3)CC2)C1N
3. CCN1CCN(Cc2ccc(Nc3ncc(F)c(-c4cc(F)c5nc(C)n(C(C)C)c5c4)n3)nc2)CC1 + CC1OCC2(CCN(c3cnc(Sc4ccnc(N)c4Cl)c(N)n3)CC2)C1N
4. Cn1nccc1Nc1nccc(-c2cc3c(s2)C(C)(C)N(CCN2CCOCC2)C3=O)n1 + C=CC(=O)N1CCN(c2nc(OCC3CCCN3C)nc3c2CCN(c2cccc4cccc(C)c24)C3)CC1CC#N
5. CC(=O)OC12COC1CC(O)C1(C)C(=O)C(O)C3=C(C)C(OC(=O)C(O)C(NC(=O)OC(C)(C)C)c4ccccc4)CC(O)(C(OC(=O)c4ccccc4)C21)C3(C)C (stereo unspecified) + CNCc1ccccc1-c1csc(C(C)Nc2nc(C)nc3cc(OC)c(OC)cc23)c1
6. Cn1ncnc1[C@H]1c2n[nH]c(=O)c3cc(F)cc(c23)N[C@@H]1c1ccc(F)cc1 + COc1cc2nc(C)nc(NC(C)c3cc(N)cc(C(F)(F)F)c3)c2cc1OC1CCOC1
7. CC(C)NCC(C(=O)N1CCN(c2ncnc3c2C(C)CC3O)CC1)c1ccc(Cl)cc1 (stereo unspecified) + C=CC(=O)N1CCN(c2nc(=O)n(-c3c(C)ccnc3C(C)C)c3nc(-c4c(O)cccc4F)c(F)cc23)C(C)C1

A.
[51, 49.4, 57.7, 98.9, 26.6, 85.3, 119]

Value sought for every listed molecule: viability, T/C.
1. Cn1ncnc1[C@H]1c2n[nH]c(=O)c3cc(F)cc(c23)N[C@@H]1c1ccc(F)cc1 + C=CC(=O)N1CCN(c2nc(OCC3CCCN3C)nc3c2CCN(c2cccc4cccc(C)c24)C3)CC1CC#N
2. CC(C)n1nc(-c2ccc3oc(N)nc3c2)c2c(N)ncnc21 + C=CC(=O)N1CCN(c2nc(OCC3CCCN3C)nc3c2CCN(c2cccc4cccc(C)c24)C3)CC1CC#N
3. COc1cc(Nc2ncc3c(n2)-c2ccc(Cl)cc2C(c2c(F)cccc2OC)=NC3)ccc1C(=O)O + C=CC(=O)N1CCN(c2nc(=O)n(-c3c(C)ccnc3C(C)C)c3nc(-c4c(O)cccc4F)c(F)cc23)C(C)C1

A.
1: 85.7; 2: 54; 3: 57.4
